Reported EC50 values follow for various compounds
- Tested on: HBV
- ASSAY DETAILS: In vitro antiviral assay for HBV (Table 1)
- Assay type: cell-based, Hepatitis B virus
- STUDY CONDITIONS: Hepatitis B virus, read-out: Antiviral Activities (EC50, μM) HBV
QUANTITY: EC50

1. Cc1c(C(=O)OCCCO)cc2ccc3c(c2c1-c1ccc2c(c1)OCO2)OCO3 : > 23 µM
2. CN1Cc2cc3ccc4c(c3c(-c3ccc5c(c3)OCO5)c2C1=O)OCO4 : > 10 µM
3. O=C([O-])c1cc2c(Cl)cc3c(c2c(-c2ccc4c(c2)OCO4)c1CO)OCO3.[Na+] [Compound 44, monosodium salt] : > 10 µM
4. O=c1[nH][nH]c(=O)c2c(-c3ccc4c(c3)OCO4)c3c4c(ccc3cc12)OCO4 : 0.03 µM
5. O=C(O)c1cc2ccc3c(c2c(-c2ccc4c(c2)OCO4)c1COCc1ccccc1)OCO3 : > 10 µM
6. COC(=O)c1c(C(=O)O)cc2ccc3c(c2c1-c1ccc2c(c1)OCO2)OCO3 : > 20 µM
7. O=C1c2cc3ccc4c(c3c(-c3ccc5c(c3)OCO5)c2C(=O)N1CCCO)OCO4 : > 5 µM
8. O=C([O-])c1cc2ccc3c(c2c(-c2ccc4c(c2)OCO4)c1CO)OCO3.[Na+] [Compound 3, monosodium salt] : 3.4 µM
9. O=C1OCc2c1c(-c1ccc3c(c1)OCO3)c1c3c(ccc1c2O)OCO3 : > 10 µM
10. CNC(=O)c1cc2ccc3c(c2c(-c2ccc4c(c2)OCO4)c1C(=O)O)OCO3 : > 20 µM
11. O=C(OCc1ccccc1)c1cc2ccc3c(c2c(-c2ccc4c(c2)OCO4)c1COCc1ccccc1)OCO3 : > 10 µM

----------
- Test system: EBV
- ASSAY DETAILS: In vitro antiviral assay for EBV
- Format: cell-based, Epstein-Barr Virus
- STUDY CONDITIONS: human gammaherpesvirus 4, read-out: Antiviral Activities (EC50, μM) EBV
Reported EC50 values follow for various compounds
QUANTITY: EC50

1. O=C([O-])c1cc2ccc3c(c2c(-c2ccc4c(c2)OCO4)c1CO)OCO3.[Na+] [Compound 3, monosodium salt] : > 20 µM
2. COc1ccc(-c2c(C(=O)O)c(C(N)=O)cc3ccc4c(c23)OCO4)cc1OC [Compound 15] : > 20 µM
3. COc1ccc(-c2c3c(cc4ccc5c(c24)OCO5)C(=O)NC3)cc1OC [Compound 22] : > 20 µM
4. Cc1c(C(=O)OCCCO)cc2ccc3c(c2c1-c1ccc2c(c1)OCO2)OCO3 [Compound 7] : > 15 µM
5. O=C([O-])c1cc2c(Cl)cc3c(c2c(-c2ccc4c(c2)OCO4)c1CO)OCO3.[Na+] [Compound 44, monosodium salt] : > 20 µM
6. O=C1c2cc3ccc4c(c3c(-c3ccc5c(c3)OCO5)c2C(=O)N1CCCO)OCO4 [Compound 29] : > 5 µM
7. O=c1[nH][nH]c(=O)c2c(-c3ccc4c(c3)OCO4)c3c4c(cc(Cl)c3cc12)OCO4 [Compound 41] : > 20 µM
8. Nc1ccn([C@@H]2CS[C@H](CO)O2)c(=O)n1 [Compound 3TC] : 0.4 µM
9. O=C(OCc1ccccc1)c1cc2ccc3c(c2c(-c2ccc4c(c2)OCO4)c1COCc1ccccc1)OCO3 [Compound 4] : > 20 µM
